src = ChEMBL document CHEMBL2016527

Target: 3',5'-cyclic-AMP phosphodiesterase 7B (Homo sapiens)
Sequence (Q9NP56 whole entry): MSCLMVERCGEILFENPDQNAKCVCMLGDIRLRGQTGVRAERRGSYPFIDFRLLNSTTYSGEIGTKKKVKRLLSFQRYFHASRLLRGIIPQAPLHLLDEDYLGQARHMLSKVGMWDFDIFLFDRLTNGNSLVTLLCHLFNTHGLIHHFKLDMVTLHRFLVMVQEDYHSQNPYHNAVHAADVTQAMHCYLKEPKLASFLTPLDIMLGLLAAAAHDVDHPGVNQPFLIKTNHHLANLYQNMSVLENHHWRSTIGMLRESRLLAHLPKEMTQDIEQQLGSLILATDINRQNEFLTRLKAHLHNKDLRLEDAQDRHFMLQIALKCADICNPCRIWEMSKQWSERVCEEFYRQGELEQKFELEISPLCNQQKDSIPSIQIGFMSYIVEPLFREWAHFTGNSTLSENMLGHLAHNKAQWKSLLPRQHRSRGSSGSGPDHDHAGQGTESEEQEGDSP
Assay: Displacement of [3H]-cAMP from human recombinant PDE7B
For each of the compounds below, state its pIC50.
Remember, pIC50 is on a log scale: it is -log10 of the molar concentration.

Which pIC50 value is on record for `COc1cc(N)ccc1-c1nc2snc(C3CCCCC3)c2c(=O)[nH]1` ?
7.51

Given the compound `COc1cc(N2CCN(C(C)=O)CC2)ccc1-c1nc2snc(C3CCCCC3)c2c(=O)[nH]1` , what is its reported pIC50?
8.10

# get_value(readout='pIC50', item= `COc1cc(N2CCCNCC2)ccc1-c1nc2snc(C3CCCCC3)c2c(=O)[nH]1` )
7.77

---

Target: High affinity 3',5'-cyclic-AMP phosphodiesterase 7A (Homo sapiens, UniProt Q13946)
Sequence (Q13946 whole entry): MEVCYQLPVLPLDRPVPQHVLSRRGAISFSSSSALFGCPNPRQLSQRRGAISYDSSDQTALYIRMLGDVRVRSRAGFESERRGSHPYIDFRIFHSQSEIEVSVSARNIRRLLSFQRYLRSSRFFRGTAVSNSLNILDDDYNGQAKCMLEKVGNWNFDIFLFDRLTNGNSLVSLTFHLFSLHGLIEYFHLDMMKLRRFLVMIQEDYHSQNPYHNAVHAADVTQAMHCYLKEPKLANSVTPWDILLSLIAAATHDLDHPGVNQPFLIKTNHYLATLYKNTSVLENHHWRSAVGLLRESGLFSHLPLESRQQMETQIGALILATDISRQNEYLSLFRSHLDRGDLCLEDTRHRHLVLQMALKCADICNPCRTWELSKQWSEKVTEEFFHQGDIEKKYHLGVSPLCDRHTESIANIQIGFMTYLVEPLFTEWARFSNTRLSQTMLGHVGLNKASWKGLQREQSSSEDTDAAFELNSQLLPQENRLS
Experiment: Displacement of [3H]-cAMP from human recombinant PDE7A
IC50 strictly less than 20 nM = MET. Otherwise NOT MET.

Consider `COc1cc(N)ccc1-c1nc2snc(-c3ccccc3Cl)c2c(=O)[nH]1` . Does its IC50 lie strictly below 20 nM?
NOT MET

Confirm or reject: IC50 of `COc1cc(N2CCC(CO)CC2)ccc1-c1nc2snc(C3CCCCC3)c2c(=O)[nH]1` lies strictly below 20 nM
MET

Criterion: IC50 strictly below 20 nM. Is it met by `COc1cc(N2CCNC(=O)C2)ccc1-c1nc2snc(C3CCCCC3)c2c(=O)[nH]1` ?
MET

hey, is IC50 for `COc1cc(N2CC[C@H](N)C2)ccc1-c1nc2snc(C3CCCCC3)c2c(=O)[nH]1` lower than 20 nM or not?
NOT MET

Does `CNC(=O)C1CCN(c2ccc(-c3nc4snc(C5CCCCC5)c4c(=O)[nH]3)c(OC)c2)CC1` have IC50 strictly under 20 nM?
MET

Item `COc1cc(N2CCC(N)CC2)ccc1-c1nc2snc(C3CCCCC3)c2c(=O)[nH]1` : IC50 beneath 20 nM, strictly?
MET

Threshold test, IC50 < 20 nM: `CNC(=O)c1ccc(-c2nc3snc(C4CCCCC4)c3c(=O)[nH]2)c(OC)c1`
NOT MET

Given the entry `COc1cc(N2CCN(S(C)(=O)=O)CC2)ccc1-c1nc2snc(C3CCCCC3)c2c(=O)[nH]1` , would its reported IC50 be below 20 nM?
NOT MET

Consider the molecule `COc1cc(N)ccc1-c1nc2snc(-c3c(F)cccc3Cl)c2c(=O)[nH]1` . Is its IC50 strictly less than 20 nM?
MET

---

Would you kindly list concentration at 5 min for each of these compounds?
Test: Drug uptake in Sprague-Dawley rat brain at 1 mg/kg, iv measured after 5 mins
Assay type: ADME, organism-based
Design: dose 1 mg/kg, route intravenous
Conditions: read-out: Drug uptake
The figure you give is taken to be in ng/g; do not add the unit.

Query: concentration at 5 min; subject: `COc1cc(N2CCN(C(C)=O)CC2)ccc1-c1nc2snc(C3CCCCC3)c2c(=O)[nH]1`
792

For the compound `COc1cc(N)ccc1-c1nc2snc(C3CCCCC3)c2c(=O)[nH]1` , what concentration at 5 min is on record?
951

---

Experiment: Metabolic stability in mouse liver microsomes assessed as compound remaining after 60 mins
Type: ADME, Microsome
Settings: read-out: Stability
TEST_READOUT: remaining at 1 h (%)
Please state the figure in %; there is no need to write the unit.

Can you share its remaining at 1 h? I mean this compound: `COc1cc(N)ccc1-c1nc2snc(C3CCCCC3)c2c(=O)[nH]1`
24

Requested field: remaining at 1 h. Item: `COc1cc(N2CCN(C(C)=O)CC2)ccc1-c1nc2snc(C3CCCCC3)c2c(=O)[nH]1`
3
